- Test system: Staphylococcus epidermidis 835
- procedure details: MIC, broth microdilution, SE 835
- Format: cell-based
- stated conditions: Staphylococcus epidermidis, 835; Table 2; in the presence of 0.002% Polysorbate 80; class symbols; read-out: MIC SE 835
- Method: Antibacterial activity in vitro is investigated by broth microdilution method in Meuller-Hinton broth as recommended by NCCLS. All strains tested are clinical isolates either sensitive or resistant to natural glycopeptides. MIC values were determined using the CLSI-recommended broth microdilution procedure (Clinical and Laboratory Standards Institute, Methods for Dilution Antimicrobial Susceptibility Tests for Bacteria That Grow Aerobically; Approved Standard-Seventh Edition.). […]
value type: MIC

# compound, value type, test value
records = [
    ("CN[C@H](CC(C)C)C(=O)N[C@H]1C(=O)N[C@@H](CC(=O)NC(=O)c2ccc(OCCCN)c(OCCCN)c2)C(=O)N[C@H]2C(=O)N[C@H]3C(=O)N[C@H](C(=O)N[C@H](C(=O)NC4C5CC6CC(C5)CC4C6)c4cc(O)cc(O)c4-c4cc3ccc4O)[C@H](O)c3ccc(c(Cl)c3)Oc3cc2cc(c3O[C@@H]2O[C@H](CO)[C@@H](O)[C@H](O)[C@H]2O[C@H]2C[C@](C)(N)[C@H](O)[C@H](C)O2)Oc2ccc(cc2Cl)[C@H]1O (stereo partly drawn)", "MIC", "0.5 to 1 µg/mL"),
]

State the recorded MIC for every item in the following list.
1. CN[C@H](CC(C)C)C(=O)N[C@H]1C(=O)N[C@@H](CC(=O)NC(=O)c2ccc(OC)cc2)C(=O)N[C@H]2C(=O)N[C@H]3C(=O)N[C@H](C(=O)N[C@H](C(=O)NC4C5CC6CC(C5)CC4C6)c4cc(O)cc(O)c4-c4cc3ccc4O)[C@H](O)c3ccc(c(Cl)c3)Oc3cc2cc(c3O[C@@H]2O[C@H](CO)[C@@H](O)[C@H](O)[C@H]2O[C@H]2C[C@](C)(N)[C@H](O)[C@H](C)O2)Oc2ccc(cc2Cl)[C@H]1O (stereo partly drawn)
2. CN[C@H](CC(C)C)C(=O)N[C@H]1C(=O)N[C@@H](CC(=O)NC(=O)c2ccc(OCCN)c(OCCN)c2)C(=O)N[C@H]2C(=O)N[C@H]3C(=O)N[C@H](C(=O)N[C@H](C(=O)NC4C5CC6CC(C5)CC4C6)c4cc(O)cc(O)c4-c4cc3ccc4O)[C@H](O)c3ccc(c(Cl)c3)Oc3cc2cc(c3O[C@@H]2O[C@H](CO)[C@@H](O)[C@H](O)[C@H]2O)Oc2ccc(cc2Cl)[C@H]1O (stereo partly drawn)

1. 0.01 to 0.5 µg/mL
2. 0.5 to 1 µg/mL
